tested on: SK-MEL-5 melanoma; assay: NCI tumour cell line growth inhibition, 48 h
Some compounds, each annotated with its measured TGI.
parameter: TGI

>>> print(df.to_string())
                                    compound        test_system  experimental_result
 0  Cc1ccc(NC(=O)C(=O)Cc2cc[n+]([O-])cc2)cc1  SK-MEL-5 melanoma             > 100 µM
 1  CCN(CC)CCSCCCNc1c2ccc(Cl)cc2nc2ccc(OC)cc12  SK-MEL-5 melanoma              3.24 µM
 2                       CCc1n[nH]c(=O)n1CCO  SK-MEL-5 melanoma             > 100 µM
 3  COc1ccccc1CNC(=O)[C@H](Cc1ccc(O)cn1)NC(C)=O  SK-MEL-5 melanoma             > 100 µM
 4  COc1cc2c(c(OC3OC(CO)C(O)C(O)C3O)c1)C(=O)CC(c1ccc(O)cc1)O2 (stereo not given)  SK-MEL-5 melanoma             > 100 µM
 5  CN(C)Cc1cc(N=Nc2ccc(Cl)cc2)ccc1OC(=O)c1ccccc1  SK-MEL-5 melanoma              28.8 µM
 6  CCC1CN2CCC3(c4ccccc4)CC(C(=O)OC)=CC1C23 (stereo not given)  SK-MEL-5 melanoma              30.2 µM
 7  N#Cc1c(N2CCOCC2)[nH]c(=O)c(C(c2c(Cl)cccc2Cl)c2c(O)c(C#N)c(N3CCOCC3)[nH]c2=O)c1O  SK-MEL-5 melanoma              35.4 µM
 8  CC(C)COC(=O)c1ccc2[nH]c(O)c(C=Nc3ccc(S(N)(=O)=O)cc3)c2c1  SK-MEL-5 melanoma              4.46 µM
 9  Cc1ccc(S(=O)(=O)NNC2Oc3cc4c(cc3C(c3ccccc3O)C2C)OCO4)cc1 (stereo not given)  SK-MEL-5 melanoma              27.6 µM
10   CCOP(=O)(OCC)/C(C#N)=C/c1c[nH]c2ccccc12  SK-MEL-5 melanoma             > 100 µM
11  C=CCN1CN(c2ccccc2)C2(CCN(CCCC3(c4ccc(F)cc4)OCCO3)CC2)C1=O  SK-MEL-5 melanoma              29.8 µM
12  C[C@]12CC[C@H](O)CC1=CC[C@@H]1C2CC[C@]2(C)Nc3c(cnn3-c3ccc(F)cc3)CC12 (stereo not given in full)  SK-MEL-5 melanoma             > 100 µM
13      O=C(O)CCSC(=O)Nc1ccc(N=Nc2ccccc2)cc1  SK-MEL-5 melanoma             > 100 µM
14  O=C(CSC1=NNC2(C(=O)N1)c1ccccc1-c1ccccc12)NC(=S)Nc1ccccc1  SK-MEL-5 melanoma              > 10 µM
15    COc1cccc(-c2nc(-c3cnccn3)n(COCCO)n2)c1  SK-MEL-5 melanoma             > 100 µM
16          C[N+](C)=c1nc(N2CCc3ccccc3C2)ss1  SK-MEL-5 melanoma             > 100 µM
17  Cc1cc(OCc2nnc3n2N=C(c2ccc(Cl)cc2Cl)CS3)ccc1Cl  SK-MEL-5 melanoma             > 100 µM
18  COC(=O)[C@@H](C)C[C@H](Cc1ccccc1)NC(=O)c1csc([C@@H](C[C@H](C(C)C)N(C)C(=O)[C@H](C)NC(=O)[C@H]2CCCCN2C)OC(C)=O)n1  SK-MEL-5 melanoma              > 25 µM
19  CC1=NN(C(=O)CC(=O)Nc2cccc(Cl)c2)C(=O)C1N=Nc1ccc(C(=O)O)cc1 (stereo not given)  SK-MEL-5 melanoma             > 100 µM

----------
TGI values, listed per item
system: M19-MEL melanoma; experiment: NCI tumour cell line growth inhibition, 48 h
parameter: TGI

>>> print(df.to_string())
                                    compound  parameter  experimental_result
 0  CC1(C)OC(=O)C=C([O-])O1.CC1(C)OC(=O)C=C([O-])O1.CC[O-].CC[O-].[Ti+4]        TGI             > 100 µM
 1  O=C1C2Nc3ccccc3SC2C(=O)N1c1ccccc1C(F)(F)F (stereo unspecified)        TGI             > 100 µM
 2  Cc1ccccc1N=NC(C(=O)c1ccccc1)C(=O)c1ccccc1        TGI              42.5 µM
 3  Cc1cc(Cl)ccc1C1OC(=O)c2c1ccc1ccccc21 (stereo unspecified)        TGI             > 100 µM
 4  O=C1C=CC(CC(=O)c2ccc3ccccc3c2)O1 (stereo unspecified)        TGI             > 100 µM
 5  CC1=C(C(=O)Nc2ccc([N+](=O)[O-])cc2)C(c2ccccc2F)C(C(=O)Nc2ccc([N+](=O)[O-])cc2)=C(C)N1        TGI              55.5 µM
 6  COC(=O)C1=C(C)N2CCOC2CC1c1ccccc1 (stereo unspecified)        TGI             > 100 µM
 7                              [Cl][Cd][Cl]        TGI              24.1 µM
 8  COc1ccc2nc(NC(=O)C(=O)C(C#N)c3ccc(Cl)c(Cl)c3)sc2c1 (stereo unspecified)        TGI             > 100 µM
 9  COC1OC2COC(c3ccccc3)OC2C(O)C1Br (stereo unspecified)        TGI             > 100 µM
10               CN1CC(=O)N(C)c2nc[nH]c2C1=O        TGI             > 100 µM

----------
test system: HOP-62 NSCLC; experiment: NCI tumour cell line growth inhibition, 48 h
parameter: TGI (µM)

In [3]: df
Out[3]:
                                    compound   test_system  sign  experimental_result
 0  C=CCCCc1ccc(C(O)CCCCCCCCCCCC)o1 (stereo not given)  HOP-62 NSCLC     =                 30.2
 1  O=C1NCCS(=O)(=O)/C1=C\C=C\c1cccc(C(F)(F)F)c1  HOP-62 NSCLC     =                 12.7
 2  O=C(CCN1CCOCC1)C(=Cc1ccccc1)C(=O)CCN1CCOCC1  HOP-62 NSCLC     =                 37.5
 3  COc1cc2c3c(n(CCCN=[N+]=[N-])c(=O)c2cc1OC)-c1ccc(N(C)C)cc1C3=O  HOP-62 NSCLC     >                  100
 4  CCC(=O)N/N=C(\C=C\c1cccc(O)c1)c1sc(Nc2ccc(C)cc2[N+](=O)[O-])nc1C  HOP-62 NSCLC     >                  100
 5  CC1OC(OC2C(Oc3cc(O)c4c(c3)O[C@H](c3ccc(O)cc3)CC4=O)OC(CO)C(O)C2O)C(O)C(O)C1O (stereo not given in full)  HOP-62 NSCLC     >                  100
 6  COc1cc(Cl)cc(-c2nn(-c3cccc(NC(=O)Nc4ccc(Cl)c(C(F)(F)F)c4)c3)cc2-c2ccncc2)c1  HOP-62 NSCLC     =                 6.32
 7  COC1=C2CC(C)CC(OC)C(O)C(C)/C=C(\C)C(OC(N)=O)C(OC)/C=C\C=C(/C)C(=O)NC(=C(/C=N/N3CCCCC3)C1=O)C2=O (stereo not given)  HOP-62 NSCLC     =                 44.5
 8  O=C(CC1C(=O)c2ccccc2C1=C1C(=O)c2ccccc2C1=O)c1ccccc1 (stereo not given)  HOP-62 NSCLC     >                  100
 9  Cc1ccc(S(=O)(=O)NNC2Oc3cc4c(cc3C(c3ccccc3O)C2C)OCO4)cc1 (stereo not given)  HOP-62 NSCLC     =                 29.6
10         CSc1cccc(NC(=O)OC2CCCCCCCCCCC2)c1  HOP-62 NSCLC     =                 48.3
11          O=C(NNC(=O)c1ccccc1O)c1ccc(O)cc1  HOP-62 NSCLC     >                  100
12             Cc1cc(-c2nc3cccc(F)c3s2)ccc1N  HOP-62 NSCLC     >                  100
13  Nn1c(N=Nc2c(O)[nH]c3c(Cl)cc(Cl)cc23)n[nH]c1=S  HOP-62 NSCLC     >                  100
14  CCC(=O)C(C(C)/C=C/CCSc1ccccc1)C(O)CCCCCC(=O)OC (stereo not given)  HOP-62 NSCLC     >                  100
15  COc1ccc2c(c1)CCC(OS(=O)(=O)CC13CCC(CC1=O)C3(C)C)C2=O (stereo not given)  HOP-62 NSCLC     =                 70.8
16     COC(=O)c1c(-c2ccccc2)c2sc3ccccc3n2c1N  HOP-62 NSCLC     >                  100
17  COc1ccc(CCNC(=O)[C@H]2CCCC[C@@H]2CCO)cc1OC  HOP-62 NSCLC     >                  100
18      O=C(O)CCSC(=O)Nc1ccc(N=Nc2ccccc2)cc1  HOP-62 NSCLC     >                  100
19  C[C@]12CC[C@H](O)CC1=CC[C@@H]1C2CC[C@]2(C)Nc3c(cnn3-c3ccc(F)cc3)CC12 (stereo not given in full)  HOP-62 NSCLC     =                 61.1
